- Target Or System: BRD2(1) (Homo sapiens, UniProt P25440)
- Construct: Fragments were tested in a thermal shift assay against bromodomains of the BET subfamily
- Sequence (P25440 74-180 limits assumed): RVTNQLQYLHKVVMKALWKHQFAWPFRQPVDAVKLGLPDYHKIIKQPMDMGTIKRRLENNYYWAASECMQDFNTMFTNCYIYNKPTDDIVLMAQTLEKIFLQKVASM
- Procedure Details: Isothermal titration calorimetry, BRD2(1)
- Study Conditions: ITC, 50 mM HEPES pH 7.5, 150 mM NaCl, 15 °C, reverse titration, triplicate
pKd: −log10 of the molar value.
Attribute Measured: pKd

P = COc1ccc(Br)cc1-c1nc(N)nc2[nH]cnc12
Q = Nc1nc(-c2cc(Br)cc3c2OCC3)c2nc[nH]c2n1
IN: Which gives the smaller pKd number: P or Q ? Write the label of whichever entry you select.
OUT: P

----------
- Target Or System: PCAF (Homo sapiens, UniProt Q92831)
- Construct: representative BRDs from other structural subfamilies (family I, PCAF); made in house
- Sequence (Q92831 723-827 limits assumed): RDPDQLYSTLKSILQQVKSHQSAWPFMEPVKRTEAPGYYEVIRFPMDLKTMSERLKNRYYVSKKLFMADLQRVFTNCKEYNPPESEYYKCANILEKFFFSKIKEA
- Procedure Details: Protein stability (thermal) shift assay, PCAF
- Format: binding
- Study Conditions: compound 10 μM, protein 2 μM; average of triplicate
Attribute Measured: ΔTm at 10 µM (°C)

a = Cn1cnc2c(Br)nc(N)nc21 [Compound 2b, 2-Amino-6-bromo-9-methylpurine]
b = Nc1nc(-c2ccc(OCc3ccccc3)cc2)c2nc[nH]c2n1 [Compound 3f]
IN: # query: argmin of ΔTm at 10 µM over a and b Record your answer as the label of the chosen record.
OUT: a

a = COc1ccc(Br)cc1-c1nc(N)nc2c1ncn2CC(C)=O [Compound 8c]
b = Nc1nc(-c2ccc(Oc3ccccc3)cc2)c2nc[nH]c2n1 [Compound 3d, 2-Amino-6-(4-phenoxyphenyl)-9H-purine]
IN: When a and b are compared, which has the higher number for ΔTm at 10 µM? State your choice using its label.
OUT: b

----------
- Target Or System: BRD2(2) (Homo sapiens, UniProt P25440)
- Construct: made in house
- Sequence (P25440 344-453 limits assumed): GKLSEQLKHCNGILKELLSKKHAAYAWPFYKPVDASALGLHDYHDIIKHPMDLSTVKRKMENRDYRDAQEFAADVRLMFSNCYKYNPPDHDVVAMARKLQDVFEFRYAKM
- Procedure Details: Protein stability (thermal) shift assay, BRD2(2)
- Type: binding
- Study Conditions: compound 10 μM, protein 2 μM; average of triplicate
- Procedure: Thermal melting experiments were carried out using an Mx3005p real time PCR machine (Stratagene). Proteins were buffered in 10 mM HEPES, pH 7.5, 500 mM NaCl and assayed in a 96-well plate at a final concentration of 2 μM in 20 μL volume. […] SYPRO Orange (Molecular Probes) was added as a fluorescence probe at a dilution of 1 in 1000. […] The temperature was raised with a step of 3 °C per minute from 25 to 96 °C, and fluorescence readings were taken at each interval. […]
Attribute Measured: ΔTm at 10 µM (°C)

# count of solved cases: 5
Chem Smiles	ΔTm at 10 µM / °C
COc1ccc(Br)cc1-c1nc(Cl)nc2[nH]cnc12	-0.564
COc1ccc(Cl)cc1-c1nc(N)nc2[nH]cnc12	1.2
COc1ccc(-c2nc(N)nc3[nH]cnc23)cc1	0.337
Cn1cnc2c(Br)nc(N)nc21	-1.8
Nc1nc(-c2ccccc2)c2nc[nH]c2n1	0.9

A = Nc1nc(-c2cccc(OCc3ccc(Cl)cc3)c2)c2nc[nH]c2n1
B = COc1ccc(Br)cc1-c1nc(N)nc2[nH]cnc12
C = Nc1nc(-c2ccc(OCc3ccccc3)c(Cl)c2)c2nc[nH]c2n1
D = Nc1nc(-c2cc(Br)cc3c2OCC3)c2nc[nH]c2n1
IN: List items by ΔTm at 10 µM in falling order. Would you mind listing the labels in the order asked for?
OUT: D, A, B, C

----------
- Target Or System: CREBBP (Homo sapiens, UniProt Q92793)
- Construct: small thermal shits (1.0–1.3 °C) for the bromodomain of CREBBP; made in house
- Sequence (Q92793 1085-1192 limits assumed): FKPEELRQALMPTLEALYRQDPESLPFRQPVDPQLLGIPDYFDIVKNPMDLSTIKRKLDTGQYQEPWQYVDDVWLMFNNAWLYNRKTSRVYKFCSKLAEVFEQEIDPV
- Procedure Details: Protein stability (thermal) shift assay, CREBBP
- Type: binding
- Study Conditions: compound 10 μM, protein 2 μM; average of triplicate; read-out: ΔTm Shift, CREBBP
- Method: Thermal melting experiments were carried out using an Mx3005p real time PCR machine (Stratagene). Proteins were buffered in 10 mM HEPES, pH 7.5, 500 mM NaCl and assayed in a 96-well plate at a final concentration of 2 μM in 20 μL volume. […] SYPRO Orange (Molecular Probes) was added as a fluorescence probe at a dilution of 1 in 1000. […] The temperature was raised with a step of 3 °C per minute from 25 to 96 °C, and fluorescence readings were taken at each interval. […]
Attribute Measured: ΔTm at 10 µM (°C)

Chem Smiles	ΔTm at 10 µM [°C]
Nc1nc(-c2cccc(OCc3ccc(Cl)cc3)c2)c2nc[nH]c2n1	1.5

1 = Cn1cnc2c(-c3ccc(Oc4ccccc4)cc3)nc(N)nc21
2 = COc1ccc(F)cc1-c1ncnc2[nH]c(C)nc12
3 = CCOc1ccc(Br)cc1-c1nc(N)nc2[nH]cnc12
IN: Thanks in advance: please rank these 3 entries by ΔTm at 10 µM, highest to lowest. Response format: the labels, sorted as the prompt asks.
OUT: 1, 3, 2
(1: 1.3 °C, 3: 0.5 °C, 2: 0.259 °C)

1 = COCCc1ccc(OCc2ccc(-c3nc(N)nc4[nH]cnc34)cc2)cc1
2 = COc1ccc(F)cc1-c1nc(N)nc2[nH]cnc12
IN: Lab note: check whether 1 or 2 has the lower measured ΔTm at 10 µM. I would appreciate it if you answered with the label of your choice.
OUT: 2

a = COc1ccc(-c2nc(N)nc3c2ncn3C)cc1
b = Nc1nc(-c2ccc(COc3cccc(C(F)(F)F)c3)cc2)c2nc[nH]c2n1
IN: So which one has the bigger ΔTm at 10 µM here, a or b ? Please identify the chosen entry by its label.
OUT: a
(a: 1.1 °C, b: 0.363 °C)

----------
- Target Or System: BRD4(1) (Homo sapiens, UniProt O60885)
- Construct: made in house
- Procedure Details: Protein stability (thermal) shift assay, BRD4(1)
- Type: binding
- Study Conditions: compound 10 μM, protein 2 μM; average of triplicate; read-out: ΔTm Shift, BRD4(1)
Attribute Measured: ΔTm at 10 µM (°C)

For orientation, consider the following solved cases.
Chem Smiles	ΔTm at 10 µM / °C
CCCCOc1cc(Br)cc(-c2nc(N)nc3[nH]cnc23)c1	1.6
COc1cc(COc2ccc(-c3nc(N)nc4[nH]cnc34)cc2Cl)cc(OC)c1	0.54
Nc1nc(-c2ccc(COc3cccc(C(F)(F)F)c3)cc2)c2nc[nH]c2n1	-0.18

a = COCCc1ccc(OCc2ccc(-c3nc(N)nc4[nH]cnc34)cc2)cc1
b = COc1ccc(-c2nc(N)nc3[nH]cnc23)cc1
c = COc1ccc(F)cc1-c1ncnc2[nH]c(C)nc12
d = COc1ccc(-c2nc(N)nc3c2ncn3C)cc1
e = Nc1nc(-c2ccc(OCc3ccccc3)cc2)c2nc[nH]c2n1
IN: hey, can you rank those compounds up there by ΔTm at 10 µM? biggest number first please List the labels according to the requested ordering.
OUT: e, a, b, c, d

A = Nc1nc(-c2ccc(Oc3ccccc3)cc2)c2nc[nH]c2n1
B = Cn1cnc2c(Br)nc(N)nc21
C = Nc1nc(-c2cc(Br)cc3c2OCC3)c2nc[nH]c2n1
IN: Arrange the 3 compounds by rising ΔTm at 10 µM, starting with the smallest. Give me the labels in the order the question wants.
OUT: A, B, C
(A: 0.533 °C, B: 1.4 °C, C: 5.3 °C)

I = Nc1nc(-c2ccc3c(c2)OCCO3)c2nc[nH]c2n1
II = COc1ccc(Br)cc1-c1nc(Cl)nc2[nH]cnc12
IN: Pick one: I or II . Which one has the lower reported ΔTm at 10 µM? Let me know the label of the one you choose.
OUT: I
(I: 0.4 °C, II: 1.3 °C)

a = Clc1nc(Cl)c2nc[nH]c2n1
b = Cn1cnc2c(-c3ccc(Oc4ccccc4)cc3)nc(N)nc21
c = CCCCOc1cc(Br)cc(-c2nc(N)nc3c2ncn3C)c1
IN: Put the items in sequence by ΔTm at 10 µM, from largest down. Order the labels as requested and list them.
OUT: a, b, c

A = COc1ccc(F)cc1-c1nc(O)nc2[nH]cnc12
B = Nc1nc(-c2ccccc2)c2nc[nH]c2n1
C = Cn1cnc2c(-c3cccc(OCc4ccc(Cl)cc4)c3)nc(N)nc21
D = Nc1nc(-c2ccc(OCc3ccccc3)c(Cl)c2)c2nc[nH]c2n1
IN: List the 4 entries from lowest ΔTm at 10 µM to highest ΔTm at 10 µM value. Returns: the labels arranged in the requested order.
OUT: D, C, A, B

a = COc1ccc(Br)cc1-c1nc(O)nc2[nH]cnc12
b = CCOc1ccc(Br)cc1-c1nc(N)nc2[nH]cnc12
IN: API: POST /compare with a and b ; response names the item with higher ΔTm at 10 µM. Which one? Tell me its label.
OUT: b
(b: 1.9 °C, a: 1.2 °C)

I = COc1ccc(Cl)cc1-c1nc(O)nc2[nH]cnc12
II = COc1ccc(Br)cc1-c1nc(N)nc2c1ncn2C
III = Nc1nc(-c2cccc(OCc3ccc(Cl)cc3)c2)c2nc[nH]c2n1
IN: // ranking: key=ΔTm at 10 µM, reverse=True Quick reminder: the answer is the labels in the order asked.
OUT: I, III, II
(I: 2.3 °C, III: 1.5 °C, II: 0.323 °C)

a = COc1ccc(Br)cc1-c1nc(N)nc2c1ncn2CC(C)=O
b = COc1ccccc1-c1nc(N)nc2[nH]cnc12
IN: Which value of ΔTm at 10 µM is numerically greater: that of a or that of b ? Field: selected label. Fill in the label of the entry you choose.
OUT: b
(b: 2.3 °C, a: 0.24 °C)
